- System: BV-2 (mouse microglia) cells
- ASSAY METHOD TEXT: progranulin secretion from BV-2 cells, mouse progranulin ELISA of conditioned media
- Type: cell-based
- PROTOCOL CONDITIONS: BV-2 cells, 16 hours incubation, 8-point curves starting at 10 μM; assay run v2 (same protocol, different assay); read-out: PRGN v2 (EC50, progranulin secretion)
MEASUREMENT KIND: EC50 (µM)
Give bare numbers, in µM.

O=C(O[C@@H]1CN2CCC1CC2)N1CCc2ccccc2[C@@H]1c1cccc(F)c1    3.55
O=C(O[C@@H]1CN2CCC1CC2)N1CCc2ccccc2[C@@H]1c1cccc(F)c1F    1.11
O=C(O[C@@H]1CN2CCC1CC2)N1CCc2ccccc2[C@@H]1c1ccc2ncsc2c1    7.88
O=C(O[C@@H]1CN2CCC1CC2)N1CCc2ccccc2[C@@H]1c1ccc2scnc2c1    5.77
O=C(O[C@@H]1CN2CCC1CC2)N1CCc2ccccc2[C@@H]1c1ccc(F)cc1F    0.25
O=C(O[C@@H]1CN2CCC1CC2)N1CCc2ccccc2[C@H]1c1cccc(F)c1F    4.3
CC1(C)[C@H](OC(=O)N2CCc3ccccc3[C@@H]2c2ccc(F)cc2)C2CCN1CC2    0.57

Kindly consider the entry below.
IN: Query (compound): O=C(N[C@@H]1CN2CCC1CC2)N1CCc2ccccc2[C@@H]1c1ccc2cccn2c1 [Compound 1107] ; field requested: EC50
OUT: 3.7

* * *

Field: pEC50. Provide a value for each of the compounds that follow.
- Test system: BV-2 (mouse microglia) cells
- ASSAY METHOD TEXT: progranulin secretion from BV-2 cells, mouse progranulin ELISA of conditioned media
- Assay type: cell-based
- PROTOCOL CONDITIONS: Mus musculus, BV-2, 16 h, BV-2 cells, 16 hours incubation, 8-point curves starting at 10 μM; assay run v2 (same protocol, different assay); read-out: PRGN v2 (EC50, progranulin secretion)
Give bare numbers, as −log10 of the molar value.

Observe how each entry below is paired with its result.
O=C(C[C@@H]1CN2CCC1CC2)N1CCc2ccccc2[C@@H]1c1ccc(F)c(F)c1    5.74
O=S(=O)(C[C@@H]1CN2CCC1CC2)N1CCc2ccccc2[C@@H]1c1ccc(F)cc1    5.77

Provide the reported pEC50 of each entry below, same order.
1. O=S(=O)(C[C@@H]1CN2CCC1CC2)N1CCc2ccccc2[C@H]1c1ccccc1
2. O=C(N[C@@H]1CN2CCC1CC2)N1CCc2cccnc2[C@@H]1c1ccc(Cl)cc1

OUT:
[5.47, 5.28]

* * *

For each entry below, report its pEC50 value.
- System: BV-2 (mouse microglia) cells
- ASSAY METHOD TEXT: progranulin secretion from BV-2 cells, mouse progranulin ELISA of conditioned media
- Format: cell-based
- PROTOCOL CONDITIONS: Mus musculus; BV-2 cells, 16 hours incubation, 8-point curves starting at 10 μM; assay run v2 (same protocol, different assay); read-out: PRGN v2 (EC50, progranulin secretion)
pEC50: −log10 of the molar value.

Each of the following entries comes with a recorded value; kindly state pEC50 for each.
1. O=C(O[C@@H]1CN2CCC1CC2)N1CCc2ccccc2[C@@H]1c1ccc(OC(F)(F)F)cc1
2. O=C(O[C@@H]1CN2CCC1CC2)N1CCc2ccccc2[C@@H]1c1ccc(-n2cnnc2)cc1
3. COCCOCCOCCNC(=O)c1ccc([C@@H]2c3ccccc3CCN2C(=O)O[C@@H]2CN3CCC2CC3)cc1
4. O=C(O[C@@H]1CN2CCC1CC2)N1CCc2ccccc2[C@H]1c1ccc(OC2CC2)cc1

OUT:
1: 5.59; 2: < 5.00; 3: < 5.00; 4: 5.20

// each listed compound needs a value for pEC50
1. COCCOCCOCCNC(=O)c1ccc([C@H]2c3ccccc3CCN2C(=O)O[C@@H]2CN3CCC2CC3)cc1
2. O=C(O[C@@H]1CN2CCC1CC2)N1Cc2ccccc2[C@H]1c1ccccc1
3. O=C(O[C@@H]1CN2CCC1CC2)N1CCc2ccccc2[C@H]1c1ccc(-n2cncn2)cc1
4. O=C(O[C@@H]1CN2CCC1CC2)N1CCc2ccccc2[C@H]1CS(=O)(=O)c1ccccc1
5. O=C(O[C@@H]1CN2CCC1CC2)N1CCc2ccccc2[C@@H]1c1ccc(F)c(F)c1

OUT:
< 5.00
< 5.00
< 5.00
< 5.00
5.69

Can you give me pEC50 for all of these, one by one?
1. O=C(O[C@@H]1CN2CCC1CC2)N1CCc2ccccc2[C@H]1c1ccc(-n2cnnc2)cc1
2. O=C(O[C@@H]1CN2CCC1CC2)N1CCc2ccccc2[C@@H]1c1ccc(-n2cncn2)cc1
3. O=C(O[C@@H]1CN2CCC1CC2)N1CCc2ccccc2[C@H]1c1ccc(C(F)(F)F)cc1
4. Cc1nc2cc([C@@H]3c4ccccc4CCN3C(=O)O[C@@H]3CN4CCC3CC4)ccc2s1
5. O=C1CCCN1c1ccc([C@@H]2c3ccccc3CCN2C(=O)O[C@@H]2CN3CCC2CC3)cc1
6. O=C(O[C@@H]1CN2CCC1CC2)N1CCc2ccccc2[C@H]1c1ccc(OC(F)(F)F)cc1

OUT:
1: < 5.00; 2: < 5.00; 3: < 5.00; 4: 5.03; 5: < 5.00; 6: 5.36

Hi! Can you tell me pEC50 for each of these compounds?
1. O=C(O[C@@H]1CN2CCC1CC2)N1CCc2ccccc2[C@H]1c1ccc(F)c(F)c1
2. O=C(O[C@@H]1CN2CCC1CC2)N1Cc2ccccc2[C@@H]1c1ccccc1
3. O=C(O[C@@H]1CN2CCC1CC2)N1CCc2ccccc2[C@@H]1c1ccc(C(F)(F)F)cc1
4. Cc1nc2ccc([C@@H]3c4ccccc4CCN3C(=O)O[C@@H]3CN4CCC3CC4)cc2o1
5. O=C(O[C@@H]1CN2CCC1CC2)N1CCc2ccccc2[C@@H]1CS(=O)(=O)c1ccccc1
6. CC1(C)[C@@H](OC(=O)N2CCc3ccccc3[C@@H]2c2cccc(F)c2F)C2CCN1CC2
7. O=C(O[C@@H]1CN2CCC1CC2)N1CCc2ccccc2[C@@H]1c1ccc(F)cc1
8. O=C(N[C@@H]1CN2CCC1CC2)N1CCc2ccccc2[C@@H]1c1ccc(F)cc1

OUT:
[5.06, "< 5.00", 5.07, "< 5.00", "< 5.00", "< 5.00", 6.37, 6.59]
